Values compiled from patent US20130029928A1.

experiment: Phase I study CXR1002-001: plasma pharmacokinetics (LC-MS/MS); format: in vivo, human; conditions: human, plasma, oral, 450 mg, Patient 016 Dose 450 mg; 3 hr; read-out: Concentration
Measurement Kind: concentration at 3 h (µM)
Answers are plain numbers, in µM.

## Task For "O=C(O)C(F)(F)C(F)(F)C(F)(F)C(F)(F)C(F)(F)C(F)(F)C(F)(F)F" , what is its reported concentration at 3 h?
## Result 126

---

experiment: Phase I study CXR1002-001: plasma pharmacokinetics (LC-MS/MS); format: in vivo, human; details: human, plasma, oral, 450 mg, Patient 015 Dose 450 mg; 506 hr; read-out: Concentration
Measurement Kind: concentration at 506 h (µM)
Answers are plain numbers, in µM.

## Task For O=C(O)C(F)(F)C(F)(F)C(F)(F)C(F)(F)C(F)(F)C(F)(F)C(F)(F)F [CXR1002] , what is its reported concentration at 506 h?
## Result 579
